Where do these numbers come from? They come from the Human Domainome abundance scans (Beltran et al. 2025).

B1: Zinc finger homeobox protein 4, residues 2086 to 2141; numbered along this chain, Q86UP3 (parent)
chain: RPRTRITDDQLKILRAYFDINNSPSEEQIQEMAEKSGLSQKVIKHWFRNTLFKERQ

# Variants of: B1
# testName: abundance fitness (aPCA) (normalised: wild type 0, dead -1); higher = more abundant; growth selection in yeast, the domain comes from the species named
# assayContext: Homo sapiens
Lab note: compare abundance fitness against -0.1. Equal or greater, write satisfied. Smaller, write not satisfied.

variantCode: P24F
groupLabel: not satisfied

variantCode: N21A
groupLabel: satisfied

variantCode: E54G
groupLabel: not satisfied

variantCode: N21I
groupLabel: not satisfied

variantCode: M32F
groupLabel: not satisfied

variantCode: S36G
groupLabel: not satisfied

variantCode: R55M
groupLabel: not satisfied

variantCode: E27G
groupLabel: satisfied

variantCode: I29L
groupLabel: satisfied

variantCode: I29T
groupLabel: not satisfied

variantCode: D19E
groupLabel: satisfied

variantCode: N21C
groupLabel: satisfied

variantCode: R55I
groupLabel: not satisfied

variantCode: F52W
groupLabel: not satisfied

variantCode: R48V
groupLabel: not satisfied

variantCode: F47V
groupLabel: satisfied

variantCode: R48L
groupLabel: satisfied

variantCode: K41F
groupLabel: satisfied

variantCode: S36A
groupLabel: satisfied

variantCode: G37F
groupLabel: not satisfied

variantCode: E26P
groupLabel: satisfied

variantCode: F47E
groupLabel: not satisfied

variantCode: E27D
groupLabel: not satisfied

variantCode: L38A
groupLabel: satisfied

variantCode: L51P
groupLabel: not satisfied

variantCode: I29G
groupLabel: not satisfied

variantCode: T50S
groupLabel: satisfied

variantCode: I43M
groupLabel: not satisfied

variantCode: V42H
groupLabel: satisfied

variantCode: M32D
groupLabel: not satisfied

variantCode: S39Y
groupLabel: not satisfied

variantCode: E27M
groupLabel: satisfied

variantCode: R48D
groupLabel: satisfied

variantCode: Q40T
groupLabel: not satisfied

variantCode: F47I
groupLabel: not satisfied

variantCode: E54M
groupLabel: not satisfied

variantCode: K35V
groupLabel: not satisfied

variantCode: I43F
groupLabel: not satisfied

variantCode: E31A
groupLabel: not satisfied

variantCode: H45V
groupLabel: satisfied

variantCode: F47R
groupLabel: not satisfied

variantCode: K44P
groupLabel: not satisfied

variantCode: H45S
groupLabel: satisfied

variantCode: T50M
groupLabel: satisfied

variantCode: E31F
groupLabel: not satisfied

variantCode: E26W
groupLabel: not satisfied

variantCode: E26M
groupLabel: satisfied

variantCode: R55E
groupLabel: satisfied

variantCode: K35W
groupLabel: not satisfied

variantCode: K44L
groupLabel: not satisfied

variantCode: T50N
groupLabel: satisfied

variantCode: Q28T
groupLabel: satisfied

variantCode: L38P
groupLabel: not satisfied

variantCode: I43D
groupLabel: not satisfied

variantCode: P24V
groupLabel: not satisfied

variantCode: R55Y
groupLabel: not satisfied

variantCode: F52T
groupLabel: satisfied

variantCode: F52K
groupLabel: satisfied

variantCode: Q28I
groupLabel: satisfied

variantCode: R55N
groupLabel: not satisfied

variantCode: A33C
groupLabel: satisfied

variantCode: F52C
groupLabel: satisfied

variantCode: K35C
groupLabel: not satisfied

variantCode: K44F
groupLabel: satisfied

variantCode: I43W
groupLabel: not satisfied

variantCode: G37M
groupLabel: satisfied

variantCode: V42S
groupLabel: satisfied

variantCode: F47L
groupLabel: not satisfied

variantCode: T50Q
groupLabel: satisfied

variantCode: N21P
groupLabel: not satisfied

variantCode: W46F
groupLabel: not satisfied

variantCode: G37W
groupLabel: not satisfied

variantCode: S25Y
groupLabel: not satisfied

variantCode: K44V
groupLabel: not satisfied

variantCode: K41T
groupLabel: satisfied

variantCode: R48N
groupLabel: satisfied

variantCode: N49K
groupLabel: satisfied

variantCode: I43C
groupLabel: not satisfied
